- assay_method_text: Half life in CD-1 mouse at 10 mg/kg, po
- Format: ADME, organism-based
- measurement_setup: in vivo
Hi there, I'd appreciate the recorded half-life for every entry that follows.
Numbers only, in h.

These solved cases illustrate the format of a correct answer.
CN(C(=O)c1cc2cc(F)c(F)cc2[nH]1)[C@@H]1COCc2[nH]c(=O)c3cc(F)c(F)cc3c21 ... 10.7
CN(C(=O)c1cc2cc(F)c(F)c(F)c2[nH]1)[C@@H]1COCc2[nH]c(=O)c3cc(F)c(F)cc3c21 ... 10.8
CN(C(=O)Nc1ccc(F)c(C#N)c1)[C@@H]1COCc2[nH]c(=O)c3cc(F)c(F)cc3c21 ... 2.4

# batch: return half-life for each of the 2 compounds below
1. CN(C(=O)Nc1ccc(F)c(Cl)c1)[C@@H]1COCc2[nH]c(=O)c3cc(F)c(F)cc3c21
2. CN(C(=O)Nc1ccc(F)c(C(F)F)c1)[C@@H]1COCc2[nH]c(=O)c3cc(F)c(F)cc3c21

3.1
2.9

---

- System: Hepatitis B virus
- assay_method_text: Antiviral activity against Hepatitis B virus Genotype B (NCBI GQ205440)
- Type: functional, organism-based
measured_property: pEC50
Give bare numbers, as −log10 of the molar value.

The reported pEC50 of the molecule `CN(C(=O)c1cc2cc(F)c(F)cc2[nH]1)[C@@H]1COCc2[nH]c(=O)c3cc(F)c(F)cc3c21` was 9.00

---

- study_system: Cytochrome P450 2C9 (Homo sapiens)
- Sequence (P11712 whole entry): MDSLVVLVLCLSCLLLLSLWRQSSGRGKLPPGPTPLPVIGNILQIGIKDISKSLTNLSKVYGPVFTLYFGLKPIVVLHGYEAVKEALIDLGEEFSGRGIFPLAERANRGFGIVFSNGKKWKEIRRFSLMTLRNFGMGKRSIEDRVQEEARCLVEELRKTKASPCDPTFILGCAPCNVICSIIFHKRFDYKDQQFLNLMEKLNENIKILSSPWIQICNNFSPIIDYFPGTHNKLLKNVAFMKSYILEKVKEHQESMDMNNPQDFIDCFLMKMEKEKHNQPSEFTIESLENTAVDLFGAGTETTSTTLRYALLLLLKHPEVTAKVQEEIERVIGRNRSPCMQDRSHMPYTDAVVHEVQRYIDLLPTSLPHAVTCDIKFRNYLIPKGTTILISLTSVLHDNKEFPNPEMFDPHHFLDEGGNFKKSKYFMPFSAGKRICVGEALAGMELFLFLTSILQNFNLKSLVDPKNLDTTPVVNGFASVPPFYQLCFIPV
- assay_method_text: Inhibition of CYP2C9 (unknown origin)
- Format: ADME
measured_property: IC50

The reported IC50 of the compound `CN(C(=O)Nc1ccc(F)c(Cl)c1)[C@@H]1COCc2[nH]c(=O)c3cc(F)c(F)cc3c21` was > 15 µM

---

- study_system: Cytochrome P450 2B6 (Homo sapiens, UniProt P20813)
- Sequence (P20813 whole entry): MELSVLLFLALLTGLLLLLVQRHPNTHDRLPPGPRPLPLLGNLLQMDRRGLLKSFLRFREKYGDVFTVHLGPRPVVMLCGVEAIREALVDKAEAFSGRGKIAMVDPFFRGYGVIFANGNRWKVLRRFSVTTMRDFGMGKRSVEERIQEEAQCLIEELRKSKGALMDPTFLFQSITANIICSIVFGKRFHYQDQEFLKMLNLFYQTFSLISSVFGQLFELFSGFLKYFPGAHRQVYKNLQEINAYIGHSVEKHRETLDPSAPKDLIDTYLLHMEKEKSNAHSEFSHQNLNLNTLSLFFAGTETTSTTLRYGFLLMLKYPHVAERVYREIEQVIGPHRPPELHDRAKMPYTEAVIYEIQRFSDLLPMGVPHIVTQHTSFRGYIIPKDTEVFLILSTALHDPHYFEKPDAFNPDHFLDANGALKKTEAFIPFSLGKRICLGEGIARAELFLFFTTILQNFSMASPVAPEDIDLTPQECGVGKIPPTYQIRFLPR
measured_property: IC50

The value of IC50 recorded for `CN(C(=O)Nc1ccc(F)c(Cl)c1)[C@@H]1COCc2[nH]c(=O)c3cc(F)c(F)cc3c21` when tested on Cytochrome P450 2B6 (Homo sapiens, UniProt P20813) reads > 15 µM

---

- assay_method_text: Drug uptake in CD-1 mouse liver at 10 mg/kg, po or 2 mg/kg, iv measured after 24 hrs
- Type: ADME, organism-based
- measurement_setup: read-out: Drug uptake
Label YES when concentration at 24 h is at or above 200 ng/g; otherwise label NO.

CN(C(=O)c1cc2cc(F)c(F)c(F)c2[nH]1)[C@@H]1COCc2[nH]c(=O)c3cc(F)c(F)cc3c21 ... YES
CN(C(=O)Nc1ccc(F)c(C#N)c1)[C@@H]1COCc2[nH]c(=O)c3cc(F)c(F)cc3c21 ... NO
CN(C(=O)Nc1ccc(F)c(C(F)F)c1)[C@@H]1COCc2[nH]c(=O)c3cc(F)c(F)cc3c21 ... NO
CN(C(=O)c1cc2cc(F)c(F)cc2[nH]1)[C@@H]1COCc2[nH]c(=O)c3cc(F)c(F)cc3c21 ... YES

With those in mind, consider the next molecule.
concentration at 24 h >= 200 ng/g for `CN(C(=O)Nc1ccc(F)c(Cl)c1)[C@@H]1COCc2[nH]c(=O)c3cc(F)c(F)cc3c21` ?
NO

---

- study_system: Cytochrome P450 2D6 (Homo sapiens)
- Sequence (P10635 whole entry): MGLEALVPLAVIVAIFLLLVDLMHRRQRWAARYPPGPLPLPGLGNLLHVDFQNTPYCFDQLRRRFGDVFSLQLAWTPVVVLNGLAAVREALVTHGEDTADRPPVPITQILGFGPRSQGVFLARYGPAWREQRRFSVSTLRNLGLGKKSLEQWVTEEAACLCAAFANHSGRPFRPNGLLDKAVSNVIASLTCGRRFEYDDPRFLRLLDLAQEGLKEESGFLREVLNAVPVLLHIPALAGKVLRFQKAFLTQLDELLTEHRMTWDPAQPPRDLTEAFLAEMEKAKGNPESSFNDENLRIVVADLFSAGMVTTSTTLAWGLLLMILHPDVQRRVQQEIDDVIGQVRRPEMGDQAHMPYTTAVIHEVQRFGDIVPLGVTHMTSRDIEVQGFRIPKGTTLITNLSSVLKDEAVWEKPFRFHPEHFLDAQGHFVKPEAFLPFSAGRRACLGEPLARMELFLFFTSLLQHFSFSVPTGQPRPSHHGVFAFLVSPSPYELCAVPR
measured_property: IC50

The reported IC50 of the compound `CN(C(=O)Nc1ccc(F)c(Cl)c1)[C@@H]1COCc2[nH]c(=O)c3cc(F)c(F)cc3c21` was > 15 µM

---

- Test system: Hepatitis B virus
- assay_method_text: Antiviral activity against Hepatitis B virus Genotype C (NCBI AB198079)
- Format: functional, organism-based
- measurement_setup: genotype C (NCBI AB18079)
measured_property: pEC50
Give bare numbers, as −log10 of the molar value.

The reported pEC50 of the molecule `CN(C(=O)c1cc2cc(F)c(F)cc2[nH]1)[C@@H]1COCc2[nH]c(=O)c3cc(F)c(F)cc3c21` was 9.00

---

- assay_method_text: AUC(last) in CD-1 mouse at 10 mg/kg, po
- Type: ADME, organism-based
- measurement_setup: in vivo
# satisfied = AUC(0-t) below 20000 ng·h/mL (exclusive); not satisfied = AUC(0-t) at/above 20000 ng·h/mL

A selection of reference data follows.
CN(C(=O)Nc1ccc(F)c(C(F)F)c1)[C@@H]1COCc2[nH]c(=O)c3cc(F)c(F)cc3c21 ... not satisfied
CN(C(=O)Nc1ccc(F)c(Cl)c1)[C@@H]1COCc2[nH]c(=O)c3cc(F)c(F)cc3c21 ... satisfied
CN(C(=O)c1cc2cc(F)c(F)c(F)c2[nH]1)[C@@H]1COCc2[nH]c(=O)c3cc(F)c(F)cc3c21 ... satisfied

Threshold test, AUC(0-t) < 20000 ng·h/mL: `CN(C(=O)Nc1ccc(F)c(C#N)c1)[C@@H]1COCc2[nH]c(=O)c3cc(F)c(F)cc3c21`
satisfied

Threshold test, AUC(0-t) < 20000 ng·h/mL: `CN(C(=O)c1cc2cc(F)c(F)cc2[nH]1)[C@@H]1COCc2[nH]c(=O)c3cc(F)c(F)cc3c21`
not satisfied

---

- Test system: Hepatitis B virus
- assay_method_text: Antiviral activity against Hepatitis B virus Genotype A (NCBI AF537372)
- Format: functional, organism-based
measured_property: EC50 (nM)
Numbers only, in nM.

The reported EC50 of the molecule `CN(C(=O)c1cc2cc(F)c(F)cc2[nH]1)[C@@H]1COCc2[nH]c(=O)c3cc(F)c(F)cc3c21` was 1

---

Hi there, I'd appreciate the recorded microsomal CLint for every entry that follows.
- assay_method_text: Intrinsic clearance in mouse liver microsomes
- Assay type: ADME, Microsome
- measurement_setup: read-out: CLH
One number for each entry, in µL/min/mg.

These solved cases illustrate the format of a correct answer.
CN(C(=O)c1cc2cc(F)c(F)cc2[nH]1)[C@@H]1COCc2[nH]c(=O)c3cc(F)c(F)cc3c21 ... 25
CN(C(=O)c1cc2ccc(F)cc2[nH]1)[C@@H]1COCc2[nH]c(=O)c3cc(F)c(F)cc3c21 ... 44
CN(C(=O)Nc1ccc(F)c(Cl)c1)[C@@H]1CNCc2[nH]c(=O)c3cc(F)c(F)cc3c21 ... 23
CN(C(=O)Nc1ccc(F)c(Cl)c1)[C@@H]1CSCc2[nH]c(=O)c3cc(F)c(F)cc3c21 ... 112

The record that follows has no microsomal CLint shown yet.
The reported microsomal CLint of the compound CN(C(=O)c1cc2cccc(F)c2[nH]1)C1COCc2[nH]c(=O)c3cc(F)c(F)cc3c21 (stereo not given) was 57
